# measurementDescription: Ratio of solubility to that of paclitaxel solubility
# Assay type: ADME
So basically: is Ratio under 70? Then 1 (yes). Not under? Then 0 (no).

[Q] Here's an entry: CC(=O)O[C@@]12COC1C[C@H](O)[C@@]1(C)C(=O)[C@H](O)C3=C(C)[C@@H](OC(=O)[C@H](O)[C@@H](NC(=O)Cc4cccs4)C(C)(C)C)C[C@@](O)([C@@H](OC(=O)c4ccccc4)[C@@H]12)C3(C)C (some centres undefined) . Is its Ratio below 70?
[A] 1 (yes)

[Q] Here's an entry: CC(=O)O[C@@]12COC1C[C@H](O)[C@@]1(C)C(=O)[C@H](O)C3=C(C)[C@@H](OC(=O)[C@H](O)[C@@H](NC(=O)c4ccco4)C(C)(C)C)C[C@@](O)([C@@H](OC(=O)c4ccccc4)[C@@H]12)C3(C)C (some centres undefined) . Is its Ratio below 70?
[A] 0 (no)

[Q] Here's an entry: CC(=O)O[C@@]12COC1C[C@H](O)[C@@]1(C)C(=O)[C@H](O)C3=C(C)[C@@H](OC(=O)[C@H](O)[C@@H](NC(=O)c4ccccc4)C(C)(C)C)C[C@@](O)([C@@H](OC(=O)c4ccccc4)[C@@H]12)C3(C)C (some centres undefined) . Is its Ratio below 70?
[A] 1 (yes)

[Q] Here's an entry: CC(=O)O[C@@]12COC1C[C@H](O)[C@@]1(C)C(=O)[C@H](O)C3=C(C)[C@@H](OC(=O)[C@H](O)[C@@H](NC(=O)c4ccc(C)s4)C(C)(C)C)C[C@@](O)([C@@H](OC(=O)c4ccccc4)[C@@H]12)C3(C)C (some centres undefined) . Is its Ratio below 70?
[A] 1 (yes)

[Q] Here's an entry: CC(=O)O[C@@]12COC1C[C@H](O)[C@@]1(C)C(=O)[C@H](O)C3=C(C)[C@@H](OC(=O)[C@H](O)[C@@H](NC(=O)c4cccn4C)C(C)(C)C)C[C@@](O)([C@@H](OC(=O)c4ccccc4)[C@@H]12)C3(C)C (some centres undefined) . Is its Ratio below 70?
[A] 1 (yes)

[Q] Here's an entry: CC(=O)O[C@@]12COC1C[C@H](O)[C@@]1(C)C(=O)[C@H](O)C3=C(C)[C@@H](OC(=O)[C@H](O)[C@@H](NC(=O)C4CCC4)C(C)(C)C)C[C@@](O)([C@@H](OC(=O)c4ccccc4)[C@@H]12)C3(C)C (some centres undefined) . Is its Ratio below 70?
[A] 0 (no)

[Q] Here's an entry: CC(=O)O[C@@]12COC1C[C@H](O)[C@@]1(C)C(=O)[C@H](O)C3=C(C)[C@@H](OC(=O)[C@H](O)[C@@H](NC(=O)C4CCCCC4)C(C)(C)C)C[C@@](O)([C@@H](OC(=O)c4ccccc4)[C@@H]12)C3(C)C (some centres undefined) . Is its Ratio below 70?
[A] 0 (no)

[Q] Here's an entry: CC(=O)O[C@@]12COC1C[C@H](O)[C@@]1(C)C(=O)[C@H](O)C3=C(C)[C@@H](OC(=O)[C@H](O)[C@@H](NC(=O)OC(C)(C)C)C(C)(C)C)C[C@@](O)([C@@H](OC(=O)c4ccccc4)[C@@H]12)C3(C)C (some centres undefined) . Is its Ratio below 70?
[A] 0 (no)

[Q] Here's an entry: CC(=O)O[C@@]12COC1C[C@H](O)[C@@]1(C)C(=O)[C@H](O)C3=C(C)[C@@H](OC(=O)[C@H](O)[C@@H](NC(=O)C4CC4)C(C)(C)C)C[C@@](O)([C@@H](OC(=O)c4ccccc4)[C@@H]12)C3(C)C (some centres undefined) . Is its Ratio below 70?
[A] 0 (no)

* * *

# experimentalTarget: Tubulin beta-1 chain (Homo sapiens) (UniProt Q9H4B7)
# Sequence (Q9H4B7 whole entry): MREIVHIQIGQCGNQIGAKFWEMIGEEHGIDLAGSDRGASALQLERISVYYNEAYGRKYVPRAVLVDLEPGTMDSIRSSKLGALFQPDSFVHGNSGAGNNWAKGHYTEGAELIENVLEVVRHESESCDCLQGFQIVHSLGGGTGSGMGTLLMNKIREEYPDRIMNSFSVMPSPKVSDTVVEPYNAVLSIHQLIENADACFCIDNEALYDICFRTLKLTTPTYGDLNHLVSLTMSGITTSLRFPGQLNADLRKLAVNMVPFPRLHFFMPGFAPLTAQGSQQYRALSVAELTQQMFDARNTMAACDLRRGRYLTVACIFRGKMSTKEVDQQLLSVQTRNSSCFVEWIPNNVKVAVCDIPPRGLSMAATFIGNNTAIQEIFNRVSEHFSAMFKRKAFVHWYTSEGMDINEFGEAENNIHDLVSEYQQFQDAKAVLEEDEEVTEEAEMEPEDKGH
# measurementDescription: Ratio of ED50 of compound to that of ED50 of paclitaxel; ED50 expressed as concentration which causes polymerization of 50% of the tubulin in microtubule assembly assay (in vitro)
# Type: functional
Exercise: for every item that follows, state its recorded ED50 ratio.

[Q] Entry CCCCCCOC(=O)N[C@H]([C@@H](O)C(=O)O[C@H]1C[C@@]2(O)[C@@H](OC(=O)c3ccccc3)[C@H]3[C@](C)(C(=O)[C@H](O)C(=C1C)C2(C)C)[C@@H](O)CC1OC[C@]13OC(C)=O)C(C)(C)C (some centres undefined) has what ED50 ratio?
[A] 2.3

[Q] Entry CC(=O)O[C@@]12COC1C[C@H](O)[C@@]1(C)C(=O)[C@H](O)C3=C(C)[C@@H](OC(=O)[C@H](O)[C@@H](NC(=O)C4CCCC4)C(C)(C)C)C[C@@](O)([C@@H](OC(=O)c4ccccc4)[C@@H]12)C3(C)C (some centres undefined) has what ED50 ratio?
[A] 1.5

[Q] Entry CC(=O)O[C@@]12COC1C[C@H](O)[C@@]1(C)C(=O)[C@H](O)C3=C(C)[C@@H](OC(=O)[C@H](O)[C@@H](NC(=O)c4sccc4C)C(C)(C)C)C[C@@](O)([C@@H](OC(=O)c4ccccc4)[C@@H]12)C3(C)C (some centres undefined) has what ED50 ratio?
[A] 1.4

[Q] Entry CCCOC(=O)N[C@H]([C@@H](O)C(=O)O[C@H]1C[C@@]2(O)[C@@H](OC(=O)c3ccccc3)[C@H]3[C@](C)(C(=O)[C@H](O)C(=C1C)C2(C)C)[C@@H](O)CC1OC[C@]13OC(C)=O)C(C)(C)C (some centres undefined) has what ED50 ratio?
[A] 1.7

* * *

# measurementDescription: Aqueous solubility was determined
# Assay type: physicochemical
# assaySetup: aqueous medium (not further specified)
metric: solubility (µg/mL)
Form entry: value (µg/mL) — number only.

[Q] Entry CC(=O)O[C@@]12COC1C[C@H](O)[C@@]1(C)C(=O)[C@H](O)C3=C(C)[C@@H](OC(=O)[C@H](O)[C@@H](NC(=O)OC(C)(C)C)C(C)(C)C)C[C@@](O)([C@@H](OC(=O)c4ccccc4)[C@@H]12)C3(C)C (stereo partly drawn) has what solubility?
[A] 33

[Q] Entry CC(=O)O[C@@]12COC1C[C@H](O)[C@@]1(C)C(=O)[C@H](O)C3=C(C)[C@@H](OC(=O)[C@H](O)[C@@H](NC(=O)/C=C/c4cccs4)C(C)(C)C)C[C@@](O)([C@@H](OC(=O)c4ccccc4)[C@@H]12)C3(C)C (stereo partly drawn) has what solubility?
[A] 1

[Q] Entry CC(=O)O[C@@]12COC1C[C@H](O)[C@@]1(C)C(=O)[C@H](O)C3=C(C)[C@@H](OC(=O)[C@H](O)[C@@H](NC(=O)c4ccco4)C(C)(C)C)C[C@@](O)([C@@H](OC(=O)c4ccccc4)[C@@H]12)C3(C)C (stereo partly drawn) has what solubility?
[A] 22

[Q] Entry CC(=O)O[C@@]12COC1C[C@H](O)[C@@]1(C)C(=O)[C@H](O)C3=C(C)[C@@H](OC(=O)[C@H](O)[C@@H](NC(=O)c4ccc(C)s4)C(C)(C)C)C[C@@](O)([C@@H](OC(=O)c4ccccc4)[C@@H]12)C3(C)C (stereo partly drawn) has what solubility?
[A] 4

[Q] Entry CC(=O)O[C@@]12COC1C[C@H](O)[C@@]1(C)C(=O)[C@H](O)C3=C(C)[C@@H](OC(=O)[C@H](O)[C@@H](NC(=O)c4ccsc4)C(C)(C)C)C[C@@](O)([C@@H](OC(=O)c4ccccc4)[C@@H]12)C3(C)C (stereo partly drawn) has what solubility?
[A] 4.7

[Q] Entry CC(=O)O[C@@]12COC1C[C@H](O)[C@@]1(C)C(=O)[C@H](O)C3=C(C)[C@@H](OC(=O)[C@H](O)[C@@H](NC(=O)C4CCC4)C(C)(C)C)C[C@@](O)([C@@H](OC(=O)c4ccccc4)[C@@H]12)C3(C)C (stereo partly drawn) has what solubility?
[A] 24

[Q] Entry CC(=O)O[C@@]12COC1C[C@H](O)[C@@]1(C)C(=O)[C@H](O)C3=C(C)[C@@H](OC(=O)[C@H](O)[C@@H](NC(=O)c4ccccc4)C(C)(C)C)C[C@@](O)([C@@H](OC(=O)c4ccccc4)[C@@H]12)C3(C)C (stereo partly drawn) [BUTITAXEL] has what solubility?
[A] 2.8

[Q] Entry CC(=O)O[C@@]12COC1C[C@H](O)[C@@]1(C)C(=O)[C@H](O)C3=C(C)[C@@H](OC(=O)[C@H](O)[C@@H](NC(=O)c4cccn4C)C(C)(C)C)C[C@@](O)([C@@H](OC(=O)c4ccccc4)[C@@H]12)C3(C)C (stereo partly drawn) has what solubility?
[A] 0.5

[Q] Entry CC(=O)O[C@@]12COC1C[C@H](O)[C@@]1(C)C(=O)[C@H](O)C3=C(C)[C@@H](OC(=O)[C@H](O)[C@@H](NC(=O)OC(C)C)C(C)(C)C)C[C@@](O)([C@@H](OC(=O)c4ccccc4)[C@@H]12)C3(C)C (stereo partly drawn) has what solubility?
[A] 0.5

[Q] Entry CCOC(=O)N[C@H]([C@@H](O)C(=O)O[C@H]1C[C@@]2(O)[C@@H](OC(=O)c3ccccc3)[C@H]3[C@](C)(C(=O)[C@H](O)C(=C1C)C2(C)C)[C@@H](O)CC1OC[C@]13OC(C)=O)C(C)(C)C (stereo partly drawn) has what solubility?
[A] 9.7

[Q] Entry CC(=O)O[C@@]12COC1C[C@H](O)[C@@]1(C)C(=O)[C@H](O)C3=C(C)[C@@H](OC(=O)[C@H](O)[C@@H](NC(=O)C4CC4)C(C)(C)C)C[C@@](O)([C@@H](OC(=O)c4ccccc4)[C@@H]12)C3(C)C (stereo partly drawn) has what solubility?
[A] 45

[Q] Entry CC(=O)O[C@@]12COC1C[C@H](O)[C@@]1(C)C(=O)[C@H](O)C3=C(C)[C@@H](OC(=O)[C@H](O)[C@@H](NC(=O)Cc4cccs4)C(C)(C)C)C[C@@](O)([C@@H](OC(=O)c4ccccc4)[C@@H]12)C3(C)C (stereo partly drawn) has what solubility?
[A] 6.7

[Q] Entry CC(=O)O[C@@]12COC1C[C@H](O)[C@@]1(C)C(=O)[C@H](O)C3=C(C)[C@@H](OC(=O)[C@H](O)[C@@H](NC(=O)C4CCCCC4)C(C)(C)C)C[C@@](O)([C@@H](OC(=O)c4ccccc4)[C@@H]12)C3(C)C (stereo partly drawn) has what solubility?
[A] 45
